B1: glmS ribozyme (parent)
chain: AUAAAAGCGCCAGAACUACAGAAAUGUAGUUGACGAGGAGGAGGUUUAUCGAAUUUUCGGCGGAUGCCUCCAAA

Variants of: B1
Test: self-cleavage kobs at 10000 uM GlcN6P; higher = faster cleavage; RNA array
Settings: with glucosamine-6-phosphate
Variants at the floor of the assay were thinned out.
property: self-cleavage kobs at 10000 uM GlcN6P (s⁻¹)
Write the value in s⁻¹ as a bare number.

Example cases with answers are listed next.
AUAAAAGCGCCAGAACUACAGAAAUGUAGUUGACGAGGAGGAGGUUGAUUGAAUUUUCGGCGGAUGCCUCCAAA [U47G C50U] :: 3.69e-05
AUAAAAGCGCCAGAACUACAGAAAUGUAGUUGACGUGGAGGAGGUUUAUGGAAUUUUCGGCGGAUGCCCCCAAA [A36U C50G U69C] :: 0.000905
AUAAACGCGCCAGAACUACAGAAAUGUAGUUGACGAGGAGGAGGUUUAUCGAAUGUUCGGCGGAUGCCUCCAAA [A6C U55G] :: 9.3e-05

Param item = AUAAAAGCGCCAGAACUACAGAAAUGUAGAUUACGAGGAGGAGGUUUAUCGAAUUUUCGGCGGAUGCCUCCAAA [U30A G32U] ; retrieve measured self-cleavage kobs at 10000 uM GlcN6P. 0.000475

self-cleavage kobs at 10000 uM GlcN6P for AUAAAAGCGCCAGAACUACAGAAAUGUAGUCGACGAGGAGGAGGUUUAUCGAAUUUUCGGCGGAUACCUCCAAA [U31C G66A] ? 0.00266
